FYI, the data here is from patent US7166598B2.

melting point values for the molecules below.

COc1cc(C(=O)N2CCN(CCN3CCC(F)(F)CC3)C[C@H]2Cc2ccc(Cl)cc2)cc(C(F)(F)F)c1.Cl.Cl
220 to 250 °C
Cl.Cl.O=C(c1cc(C(F)(F)F)cc(C(F)(F)F)c1)N1CCN(CCN2C[C@H](O)[C@@H](O)C2)C[C@H]1Cc1ccc(C(F)(F)F)cc1
154 to 159 °C
COc1cc(C(=O)N2CCN(Cc3cccnc3)C[C@H]2Cc2c[nH]c3ccccc23)cc(C(F)(F)F)c1.Cl.Cl
190 to 200 °C
COc1cc(C[C@@H]2CN(CCN3CCOC(C)(C)C3)CCN2C(=O)c2cc(C(F)(F)F)cc(C(F)(F)F)c2)ccc1F.Cl.Cl
152 to 162 °C
COC[C@@H]1CN(CC#CCN2CCN(C(=O)c3cc(C(F)(F)F)cc(C(F)(F)F)c3)C(Cc3ccc(C)c(O)c3)C2)[C@@H](C)CO1.Cl.Cl (stereo partly shown)
110 to 135 °C
Cl.Cn1cc(CN2CCN(C(=O)c3cc(C(F)(F)F)cc(C(F)(F)F)c3)[C@H](Cc3ccc(C(F)(F)F)cc3)C2)cn1
200 to 229 °C
Cl.Cl.O=C(c1cc(C(F)(F)F)cc(C(F)(F)F)c1)N1CCN(Cc2cccnc2)C[C@H]1Cc1ccc(Cl)cc1
220 to 228 °C (dec.)
Cl.Cl.O=C(c1cc(C(F)(F)F)cc(C(F)(F)F)c1)N1CCN(CCN2CCC(F)(F)CC2)C[C@H]1Cc1ccc(C(F)(F)F)cc1
209 to 253 °C
CSc1cc(C(=O)N2CCN(CCN3CCc4ncccc4C3)C[C@H]2Cc2ccc(Cl)c(O)c2)cc(C(F)(F)F)c1.Cl.Cl.Cl
169 to 178 °C
COC[C@@H]1CN(CCN2CCN(C(=O)c3cc(C(F)(F)F)cc(S(C)(=O)=O)c3)[C@H](Cc3ccc(C)c(O)c3)C2)CCO1.Cl.Cl
173.5 to 178 °C

Query :: Provide measured melting point value, entry: COC[C@@H]1CN(CCN2CCN(C(=O)c3cc(Cl)cc(C(F)(F)F)c3)[C@H](Cc3ccc(C(F)(F)F)cc3)C2)CCO1.Cl.Cl
Result :: 168 to 173 °C

====

Some compounds, each annotated with its measured melting point.

Answered cases to consult:
COC[C@@H]1CN(CCN2CCN(C(=O)c3cc(C(F)(F)F)cc(C(F)(F)F)c3)C(Cc3ccc(C)c(O)c3)C2)C(C)(C)CO1.Cl.Cl (stereo partly shown)
150 to 180 °C
Cc1cc(C(=O)N2CCN(CCN3C[C@@H](C)O[C@@H](C)C3)C[C@H]2Cc2ccc(Cl)cc2)cc(C(F)(F)F)c1.Cl.Cl
82.3 to 88.2 °C
C[C@@H]1CN(CCN2CCN(C(=O)c3cc(-c4ccncc4)cc(C(F)(F)F)c3)[C@H](Cc3ccc(C(F)(F)F)cc3)C2)C[C@H](C)O1.Cl.Cl.Cl
135 to 145 °C

Read the next record carefully.
Query :: Give the reported melting point for this compound. Cl.Cl.O=C(c1cc(C(F)(F)F)cc(C(F)(F)F)c1)N1CCN(Cc2cccnc2)C[C@H]1Cc1ccc2ccccc2c1
Result :: 198 to 208 °C

====

METRIC: melting point

Some compounds with recorded melting point:
CS(=O)(=O)c1cc(C(=O)N2CCN(CCN3CCc4ncccc4C3)C[C@H]2Cc2ccc(Cl)cc2)cc(C(F)(F)F)c1.Cl.Cl.Cl
198 to 213 °C
COc1cc(C[C@@H]2CN(CCN3C[C@H](OC)[C@@H](OC)C3)CCN2C(=O)c2cc(C(F)(F)F)cc(C(F)(F)F)c2)ccc1F.Cl.Cl
112 to 120 °C
COc1cc(C(=O)N2CCN(CCN3CCc4ncccc4C3)C[C@H]2Cc2ccc(C)c(O)c2)cc(C(F)(F)F)c1.Cl.Cl.Cl
192 to 208 °C

Next item in the queue.
Query :: Input Cc1ccc(C[C@@H]2CN(Cc3nc(N(C)C)no3)CCN2C(=O)c2cc(C(F)(F)F)cc(C(F)(F)F)c2)cc1O.Cl.Cl , output reported melting point.
Result :: 140 to 150 °C
